METHOD: Volume of distribution at steady state in Sprague-Dawley rat at 1 mg/kg, iv
Assay type: ADME, organism-based
STATED_CONDITIONS: in vivo, read-out: Vdss
# cutoff 0.3 L/kg applies to Vd; >= gives satisfied, < gives not satisfied

Ask | Is Vd at least 0.3 L/kg? Consider COc1cnc(-c2cnccn2)c2[nH]cc(C(=O)C(=O)N3CCN(C(=O)c4ccccn4)CC3)c12
Reply | satisfied

Ask | Is Vd at least 0.3 L/kg? Consider COc1cnc(-n2ccc(C)n2)c2[nH]cc(C(=O)C(=O)N3CCN(C(=O)c4ccccc4)CC3)c12
Reply | not satisfied

Ask | Is Vd at least 0.3 L/kg? Consider COc1cnc(-n2cncn2)c2[nH]cc(C(=O)C(=O)N3CCN(C(=O)c4ccccc4)CC3)c12
Reply | satisfied

Ask | Is Vd at least 0.3 L/kg? Consider COc1cnc(-n2cccn2)c2[nH]cc(C(=O)C(=O)N3CCN(C(=O)c4ccccc4)CC3)c12
Reply | satisfied

Ask | Is Vd at least 0.3 L/kg? Consider CCc1ncn(-c2ncc(OC)c3c(C(=O)C(=O)N4CCN(C(=O)c5ccccc5)CC4)c[nH]c23)n1
Reply | not satisfied

Ask | Is Vd at least 0.3 L/kg? Consider COc1cnc(-n2cnc(N3CCOCC3)n2)c2[nH]cc(C(=O)C(=O)N3CCN(C(=O)c4ccccc4)CC3)c12
Reply | not satisfied

Ask | Is Vd at least 0.3 L/kg? Consider COc1cnc(-n2cnc(C)n2)c2[nH]cc(C(=O)C(=O)N3CCN(C(=O)c4ccccc4)[C@H](C)C3)c12
Reply | satisfied

Ask | Is Vd at least 0.3 L/kg? Consider COc1cnc(-c2cnccn2)c2[nH]cc(C(=O)C(=O)N3CCN(C(=O)c4ccccn4)[C@H](C)C3)c12
Reply | satisfied

---

METHOD: Oral bioavailability in Sprague-Dawley rat at 5 mg/kg
Assay type: ADME, organism-based
STATED_CONDITIONS: in vivo
# cutoff 70% applies to bioavailability; >= gives true (1), < gives false (0)

Ask | Is bioavailability at least 70%? Consider COc1cnc(-n2ccc(C)n2)c2[nH]cc(C(=O)C(=O)N3CCN(C(=O)c4ccccc4)[C@H](C)C3)c12
Reply | true (1)

Ask | Is bioavailability at least 70%? Consider COc1cnc(-n2ccc(C)n2)c2[nH]cc(C(=O)C(=O)N3CCN(C(=O)c4ccccc4)CC3)c12
Reply | false (0)

Ask | Is bioavailability at least 70%? Consider COc1cnc(-n2ccc(N)n2)c2[nH]cc(C(=O)C(=O)N3CCN(C(=O)c4ccccc4)CC3)c12
Reply | false (0)

Ask | Is bioavailability at least 70%? Consider COc1cnc(-n2ccnn2)c2[nH]cc(C(=O)C(=O)N3CCN(C(=O)c4ccccc4)[C@H](C)C3)c12
Reply | false (0)

Ask | Is bioavailability at least 70%? Consider COc1cnc(-n2cccn2)c2[nH]cc(C(=O)C(=O)N3CCN(C(=O)c4ccccc4)CC3)c12
Reply | true (1)

Ask | Is bioavailability at least 70%? Consider CCc1ncn(-c2ncc(OC)c3c(C(=O)C(=O)N4CCN(C(=O)c5ccccc5)CC4)c[nH]c23)n1
Reply | true (1)

Ask | Is bioavailability at least 70%? Consider COc1cnc(-n2cc(C)nn2)c2[nH]cc(C(=O)C(=O)N3CCN(C(=O)c4ccccc4)[C@H](C)C3)c12
Reply | false (0)

Ask | Is bioavailability at least 70%? Consider COc1cnc(-n2ccnn2)c2[nH]cc(C(=O)C(=O)N3CCN(C(=O)c4ccccc4)CC3)c12
Reply | false (0)

Ask | Is bioavailability at least 70%? Consider COc1cnc(-c2cncc(=O)[nH]2)c2[nH]cc(C(=O)C(=O)N3CCN(C(=O)c4ccccc4)CC3)c12
Reply | false (0)

Ask | Is bioavailability at least 70%? Consider COc1cnc(-c2cnccn2)c2[nH]cc(C(=O)C(=O)N3CCN(C(=O)c4ccccn4)[C@H](C)C3)c12
Reply | false (0)

Ask | Is bioavailability at least 70%? Consider COc1cnc(-n2ccc(CO)n2)c2[nH]cc(C(=O)C(=O)N3CCN(C(=O)c4ccccc4)[C@H](C)C3)c12
Reply | false (0)

Ask | Is bioavailability at least 70%? Consider CCc1ncn(-c2ncc(OC)c3c(C(=O)C(=O)N4CCN(C(=O)c5ccccc5)[C@H](C)C4)c[nH]c23)n1
Reply | true (1)

Ask | Is bioavailability at least 70%? Consider COc1cnc(-n2cnc(N3CCOCC3)n2)c2[nH]cc(C(=O)C(=O)N3CCN(C(=O)c4ccccc4)CC3)c12
Reply | false (0)

Ask | Is bioavailability at least 70%? Consider COc1cnc(-c2cnccn2)c2[nH]cc(C(=O)C(=O)N3CCN(C(=O)c4ccccn4)CC3)c12
Reply | true (1)

Ask | Is bioavailability at least 70%? Consider COc1cnc(-n2cncn2)c2[nH]cc(C(=O)C(=O)N3CCN(C(=O)c4ccccc4)CC3)c12
Reply | true (1)

Ask | Is bioavailability at least 70%? Consider COc1cnc(-n2cnc(C)n2)c2[nH]cc(C(=O)C(=O)N3CCN(C(=O)c4ccccc4)[C@H](C)C3)c12
Reply | true (1)

---

METHOD: Clearance in Sprague-Dawley rat at 1 mg/kg, iv
Format: ADME, organism-based
STATED_CONDITIONS: in vivo
MEASURED_PROPERTY: clearance (mL/min/kg)
Reply numerically in mL/min/kg, unit not repeated.

Ask | For COc1cnc(-n2ccc(N)n2)c2[nH]cc(C(=O)C(=O)N3CCN(C(=O)c4ccccc4)CC3)c12 , write its clearance.
Reply | 57

Ask | For COc1cnc(-n2cccn2)c2[nH]cc(C(=O)C(=O)N3CCN(C(=O)c4ccccc4)CC3)c12 , write its clearance.
Reply | 5.6

Ask | For COc1cnc(-c2cncc(=O)[nH]2)c2[nH]cc(C(=O)C(=O)N3CCN(C(=O)c4ccccc4)CC3)c12 , write its clearance.
Reply | 5.6

Ask | For COc1cnc(-n2cnc(N3CCOCC3)n2)c2[nH]cc(C(=O)C(=O)N3CCN(C(=O)c4ccccc4)CC3)c12 , write its clearance.
Reply | 6.1

---

METHOD: Metabolic stability in human liver microsomes assessed as parent compound remaining after 10 mins
Type: ADME, microsome
STATED_CONDITIONS: read-out: Stability
Answer each item with its documented remaining at 10 min.
Reply numerically in %, unit not repeated.

Ask | For COc1cnc(-c2cnccn2)c2[nH]cc(C(=O)C(=O)N3CCN(C(=O)c4ccccn4)CC3)c12 , write its remaining at 10 min.
Reply | 100

Ask | For COCc1ncn(-c2ncc(OC)c3c(C(=O)C(=O)N4CCN(C(=O)c5ccccc5)CC4)c[nH]c23)n1 , write its remaining at 10 min.
Reply | 97

Ask | For COc1cnc(-n2ccc(CN(C)C)n2)c2[nH]cc(C(=O)C(=O)N3CCN(C(=O)c4ccccc4)CC3)c12 , write its remaining at 10 min.
Reply | 100

Ask | For COc1cnc(-c2cncc(=O)[nH]2)c2[nH]cc(C(=O)C(=O)N3CCN(C(=O)c4ccccc4)CC3)c12 , write its remaining at 10 min.
Reply | 100

Ask | For COc1cnc(-n2cncn2)c2[nH]cc(C(=O)C(=O)N3CCN(C(=O)c4ccccc4)[C@H](C)C3)c12 , write its remaining at 10 min.
Reply | 95

Ask | For COc1cnc(-n2cncn2)c2[nH]cc(C(=O)C(=O)N3CCN(C(=O)c4ccccc4)CC3)c12 , write its remaining at 10 min.
Reply | 83

Ask | For COc1cnc(-n2cnc(SC)n2)c2[nH]cc(C(=O)C(=O)N3CCN(C(=O)c4ccccc4)CC3)c12 , write its remaining at 10 min.
Reply | 68

Ask | For CCN(CC)CCNc1ncn(-c2ncc(OC)c3c(C(=O)C(=O)N4CCN(C(=O)c5ccccc5)CC4)c[nH]c23)n1 , write its remaining at 10 min.
Reply | 87

---

METHOD: Aqueous solubility of the compound at pH 10
Assay type: physicochemical
STATED_CONDITIONS: buffer
MEASURED_PROPERTY: solubility (µg/mL)
Reply numerically in µg/mL, unit not repeated.

Ask | For COc1cnc(-n2cnc(C)n2)c2[nH]cc(C(=O)C(=O)N3CCN(C(=O)c4ccccc4)CC3)c12 , write its solubility.
Reply | 70

---

METHOD: Aqueous solubility of the compound at pH 1.5 to 8.2
Type: physicochemical
STATED_CONDITIONS: buffer
MEASURED_PROPERTY: solubility

Ask | For COc1cnc(-n2cnc(C)n2)c2c1c(C(=O)C(=O)N1CCN(C(=O)c3ccccc3)CC1)cn2COP(=O)(O)O.NC(CO)(CO)CO , write its solubility.
Reply | > 11 mg/mL
